Values compiled from PubChem BioAssay (NCI).

Test system: SF-539 CNS
METHOD: NCI-60 one-dose screen, 48 h (100 = growth as untreated, 0 = no growth, -100 = all killed)
CONDITION LABEL: 10 µM unless noted
The panel holds about 83,000 compounds, 20% with a hit somewhere; the sample as a whole holds those more often.
Label fulfilled when growth is at or above 50%; otherwise label not fulfilled.

{"columns": ["MOLECULE", "LABEL CLASS"],
 "data": [
  ["COC(=O)/C=C/c1cc(OC(C)=O)c2c(c1)[C@@H](C(=O)OC)[C@H](c1ccc(OC(C)=O)c(OC(C)=O)c1)O2", "not fulfilled"],
  ["O=C(/C=C/c1cc([N+](=O)[O-])ccc1Cl)c1ccccc1", "fulfilled"],
  ["CCN(CC)Cc1cc(Nc2nc(NC3CCC(N(C)C)CC3)c3ccccc3n2)ccc1OC (centres undefined)", "fulfilled"],
  ["N#Cc1c(N)c(C(=O)c2ccc3c(c2)OCCO3)n2c1CCCC2", "not fulfilled"],
  ["COc1cc2c(cc1C)NC(=O)/C2=C\\c1c[nH]c2ccccc12", "fulfilled"],
  ["CC(CN1CCN(C)CC1)CN1c2ccccc2Sc2ccc(C(F)(F)F)cc21 (centres undefined)", "fulfilled"],
  ["FC(F)(F)C1=NNC(c2ccc3ccccc3c2)=NN1", "fulfilled"],
  ["C[C@]12CCc3nc(Nc4ccc(O)cc4)sc3C1=CC[C@@H]1[C@@H]2CC[C@]2(C)/C(=N/NC(N)=S)CC[C@@H]12", "not fulfilled"]
]}
